Listing: selectivity ratio: kcat/Km for MT1-MMP divided by kcat/Km for MMP-9 of selected substances
Target: MT1-MMP (Homo sapiens)
Assay: Peptide substrate hydrolysis kinetics, selectivity between MT1-MMP and MMP-9
Type: biochemical
Conditions: MT1-MMP substrates
Write the value as a bare number.

B175: MT1-MMP selective substrate peptide from phage clone B175, sequence S-G-R-A-M-H-M-Y-T-A (Table V) (RAMHMYT)	19
A176: MT1-MMP selective substrate peptide from phage clone A176, sequence S-G-R-S-E-N-I-R-T-A (Table V) (RSENIRT)	73
B149: MT1-MMP selective substrate peptide from phage clone B149, sequence S-G-A-R-Y-R-W-L-T-A (Table V) (ARYRWLTA)	3
A42: MT1-MMP selective substrate peptide from phage clone A42, sequence S-G-R-I-G-F-L-R-T-A (Table V) (RIGFLRT)	54

Let us examine a further case.
The substance B96: MT1-MMP selective substrate peptide from phage clone B96, sequence S-G-L-I-S-H-S-I-T-A (Table V) (LISHSITA) showed selectivity ratio: kcat/Km for MT1-MMP divided by kcat/Km for MMP-9 equal to 5

----------
Listing: selectivity ratio: kcat/Km for MMP-2 divided by kcat/Km for MMP-1 of selected substances
Biological target: MMP-2 (Homo sapiens)
Construct: the cDNA encoding the catalytic domain of MMP-2 was generated by PCR; made in house; host or cells: HEK 293 cells
Sequence (P08253 110-465 limits assumed): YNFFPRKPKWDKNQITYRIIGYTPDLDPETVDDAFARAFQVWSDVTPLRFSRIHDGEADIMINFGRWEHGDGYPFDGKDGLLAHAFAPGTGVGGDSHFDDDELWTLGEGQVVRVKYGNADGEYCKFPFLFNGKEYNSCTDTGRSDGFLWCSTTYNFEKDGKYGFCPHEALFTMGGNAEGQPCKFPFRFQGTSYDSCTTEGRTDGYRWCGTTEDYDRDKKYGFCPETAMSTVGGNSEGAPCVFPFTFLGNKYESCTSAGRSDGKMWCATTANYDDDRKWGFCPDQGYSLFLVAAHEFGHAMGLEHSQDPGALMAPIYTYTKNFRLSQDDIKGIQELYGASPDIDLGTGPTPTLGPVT
Assay: Peptide substrate hydrolysis kinetics, fluorescamine incorporation assay (kcat/Km, selectivity ratio)
Assay type: biochemical
Settings: MMP-2 substrates; MMP-1
Write the value as a bare number.

In the examples that follow, each entry is paired with its recorded selectivity ratio: kcat/Km for MMP-2 divided by kcat/Km for MMP-1.
B37: MMP-2 selective substrate peptide from phage clone B37, sequence A-N-I-S-D-L-T-A (ANISDLTA)	58
B49: MMP-2 selective substrate peptide from phage clone B49, sequence L-R-L-A-A-I-T-A (LRLAAITA)	13

The substance A3: MMP-2 selective substrate peptide from phage clone A3, sequence A-K-P-R-A-L-T-A (AKPRALTA) showed selectivity ratio: kcat/Km for MMP-2 divided by kcat/Km for MMP-1 equal to 14

----------
Target: MMP-2 (Homo sapiens)
Construct: the cDNA encoding the catalytic domain of MMP-2 was generated by PCR; made in house; host or cells: HEK 293 cells
Test: Peptide substrate hydrolysis kinetics, fluorescamine incorporation assay (kcat/Km, selectivity ratio)
Assay type: biochemical
Settings: MMP-2 substrates; MMP-7
RESULT_TYPE: selectivity ratio: kcat/Km for MMP-2 divided by kcat/Km for MMP-7
Write the value as a bare number.

C9: MMP-2 selective substrate peptide from phage clone C9, sequence R-S-L-S-R-L-T-A (RSLSRLTA)	35

The substance A34: MMP-2 selective substrate peptide from phage clone A34, sequence N-R-Y-S-S-L-T-A (NRYSSLTA) showed selectivity ratio: kcat/Km for MMP-2 divided by kcat/Km for MMP-7 equal to 84

The substance B49: MMP-2 selective substrate peptide from phage clone B49, sequence L-R-L-A-A-I-T-A (LRLAAITA) showed selectivity ratio: kcat/Km for MMP-2 divided by kcat/Km for MMP-7 equal to 6

The substance A3: MMP-2 selective substrate peptide from phage clone A3, sequence A-K-P-R-A-L-T-A (AKPRALTA) showed selectivity ratio: kcat/Km for MMP-2 divided by kcat/Km for MMP-7 equal to 21

The substance B37: MMP-2 selective substrate peptide from phage clone B37, sequence A-N-I-S-D-L-T-A (ANISDLTA) showed selectivity ratio: kcat/Km for MMP-2 divided by kcat/Km for MMP-7 equal to 17

The substance A13: MMP-2 selective substrate peptide from phage clone A13, sequence G-A-V-S-W-L-L-T (GAVSWLLT) showed selectivity ratio: kcat/Km for MMP-2 divided by kcat/Km for MMP-7 equal to 13

The substance B74: MMP-2 selective substrate peptide from phage clone B74, sequence E-S-L-A-Y-Y-T-A (ESLAYYTA) showed selectivity ratio: kcat/Km for MMP-2 divided by kcat/Km for MMP-7 equal to 354

These measurements were taken from patent US7935785B2.
